SYSTEM UNDER TEST: recombinant human BACE1 (rhBACE1) (human, UniProt P56817 22-457, limits assumed)
Sequence (P56817 22-457 limits assumed): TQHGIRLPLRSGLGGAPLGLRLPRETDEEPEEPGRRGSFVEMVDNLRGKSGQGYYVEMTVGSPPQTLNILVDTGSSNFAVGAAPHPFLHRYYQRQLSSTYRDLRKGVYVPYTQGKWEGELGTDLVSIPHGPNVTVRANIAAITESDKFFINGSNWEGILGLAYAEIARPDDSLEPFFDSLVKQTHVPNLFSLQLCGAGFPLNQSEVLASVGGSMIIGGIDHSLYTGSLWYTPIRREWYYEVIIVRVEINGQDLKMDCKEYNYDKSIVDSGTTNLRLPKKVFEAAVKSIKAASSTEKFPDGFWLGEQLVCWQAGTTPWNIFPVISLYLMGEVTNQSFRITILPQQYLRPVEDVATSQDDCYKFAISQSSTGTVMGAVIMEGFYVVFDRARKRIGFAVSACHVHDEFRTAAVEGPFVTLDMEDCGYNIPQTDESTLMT
EXPERIMENTAL PROTOCOL: cell-based or functional assay
Positions of bridges follow the written chain, without caps; N, C: chain ends. Non-standard residues stand in square brackets, D forms with d. Cit = NC(=O)NCCC[C@H](N)C(=O)O
Please provide measured Caliper (MCE) BACE1 activity assay IC50 for the entries that follow.
Give a bare numeral; the unit nM is implied.

Prompt line: Data request, read-out Caliper (MCE) BACE1 activity assay IC50, for Ac-AEESMYCRLLGIGCG-NH2 (disulfide 7-14 (inferred), also called BACE020 position 1 to Ala) [BACE042]
Response line: 12

Prompt line: Data request, read-out Caliper (MCE) BACE1 activity assay IC50, for Ac-ESMYC[Cit]LLGIGCG-NH2 (disulfide 5-12 (inferred), also called BACE030 with Arg to citrulline) [BACE060]
Response line: 772

Prompt line: Data request, read-out Caliper (MCE) BACE1 activity assay IC50, for Ac-NEESMYCRLLGAGCG-NH2 (disulfide 7-14 (inferred), also called BACE020 Ile12 to Ala) [BACE052]
Response line: 14
